test: Volume of distribution in Wistar Han rat at 2 mg/kg, iv; type: ADME, organism-based; conditions: in vivo
readout-kind: Vd
The answer should read as a number with its unit following.

Entry under review: `O=C1NCc2c1cc(OC1CN(C(=O)C3CC3)C1)cc2-c1ccc(OC(F)F)nc1` . Reported Vd?
1.4 L/kg

###

experiment: Half life in Wistar Han rat at 2 mg/kg, iv; type: ADME, organism-based; conditions: in vivo
readout-kind: half-life (h)
One number for each entry, in h.

Entry under review: `O=C1NCc2c1cc(OC1CN(C(=O)C3CC3)C1)cc2-c1ccc(OC(F)F)nc1` . Reported half-life?
3.7

###

For each entry below, report its IC50 value.
target: Phosphatidylinositol 4,5-bisphosphate 3-kinase catalytic subunit gamma isoform (Homo sapiens, UniProt P48736); assay: Inhibition of PI3Kgamma (unknown origin) by HTRF assay
Sequence (P48736 whole entry, canonical isoform): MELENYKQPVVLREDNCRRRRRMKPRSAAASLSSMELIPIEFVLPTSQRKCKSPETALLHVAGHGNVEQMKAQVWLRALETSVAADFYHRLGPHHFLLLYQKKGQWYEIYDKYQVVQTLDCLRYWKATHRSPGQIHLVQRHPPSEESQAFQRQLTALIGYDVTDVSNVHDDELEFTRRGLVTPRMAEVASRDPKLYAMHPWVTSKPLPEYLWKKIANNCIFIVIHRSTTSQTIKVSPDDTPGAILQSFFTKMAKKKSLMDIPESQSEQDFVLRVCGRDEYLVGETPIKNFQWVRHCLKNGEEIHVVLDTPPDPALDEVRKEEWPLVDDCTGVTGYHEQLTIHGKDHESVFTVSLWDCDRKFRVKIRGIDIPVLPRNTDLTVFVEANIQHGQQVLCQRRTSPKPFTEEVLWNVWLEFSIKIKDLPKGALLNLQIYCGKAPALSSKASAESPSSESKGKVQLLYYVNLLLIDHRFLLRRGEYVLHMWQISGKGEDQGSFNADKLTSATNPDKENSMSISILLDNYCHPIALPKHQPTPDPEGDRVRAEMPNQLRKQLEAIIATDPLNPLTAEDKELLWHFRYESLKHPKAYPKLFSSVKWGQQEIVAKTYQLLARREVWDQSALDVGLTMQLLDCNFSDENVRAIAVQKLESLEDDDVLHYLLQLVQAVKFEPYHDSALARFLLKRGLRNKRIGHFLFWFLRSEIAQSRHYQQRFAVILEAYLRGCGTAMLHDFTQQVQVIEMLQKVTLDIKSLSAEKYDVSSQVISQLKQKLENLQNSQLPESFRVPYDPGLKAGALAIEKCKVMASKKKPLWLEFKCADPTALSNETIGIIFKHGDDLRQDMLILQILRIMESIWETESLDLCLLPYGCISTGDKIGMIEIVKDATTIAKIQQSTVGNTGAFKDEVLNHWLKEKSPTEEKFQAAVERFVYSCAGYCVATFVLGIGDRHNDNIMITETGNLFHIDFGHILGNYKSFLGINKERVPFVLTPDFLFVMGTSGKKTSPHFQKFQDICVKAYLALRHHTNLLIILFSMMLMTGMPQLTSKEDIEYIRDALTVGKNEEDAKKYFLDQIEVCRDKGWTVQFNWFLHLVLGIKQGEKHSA
Numbers only, in µM.

Here are 4 compounds together with their reported answers.
O=C1NCc2c1cc(O[C@@H]1CCN(C(=O)C3CC(F)(F)C3)C1)cc2-c1cc(O)cc(F)c1 1.35
Cc1ncc(-c2cc(O[C@@H]3CCN(C(=O)C4CC4)C3)cc3c2CNC3=O)cc1NS(C)(=O)=O 3.01
O=C1NCc2c1cc(O[C@@H]1CCN(C(=O)C3CCOCC3)C1)cc2-c1cc(O)cc(F)c1 3.13
O=C1NCc2c1cc(NCCCc1ccccc1)cc2-c1cccc(O)c1 4.33

Moving on to the next compound.
Entry under review: `C[C@@H]1CN(Cc2nnc(-c3cc4c(c(-c5cc(O)cc(F)c5)c3)CNC4=O)o2)C[C@H](C)O1` . Reported IC50?
7.39

###

For each entry below, report its IC50 value.
target: Phosphatidylinositol 4,5-bisphosphate 3-kinase catalytic subunit gamma isoform (Homo sapiens, UniProt P48736); assay: Inhibition of PI3Kgamma (unknown origin) by HTRF assay

Here are 3 compounds together with their reported answers.
compound	IC50
O=C1NCc2c1cc(NCCCN1CCOCC1)cc2-c1cccc(O)c1	> 50 µM
Nc1ncc(-c2cc(OC3CN(C(=O)C4CC4)C3)cc3c2CNC3=O)cc1C(F)(F)F	> 10 µM
O=C1NCc2c1cc(O[C@@H]1CCN(C(=O)C3CC3)C1)cc2-c1cncc(O)c1	3.06 µM

Batch: IC50 for all items listed.
1. O=C1NCc2c1cc(-c1cccc(F)c1)cc2-c1cc(O)cc(F)c1
2. O=C1NCc2c1cc(NCCCc1ccccc1)cc2-c1cc(O)cc(F)c1
3. O=C1NCc2c1cccc2-c1cc(O)cc(F)c1
4. O=C1NCc2c1cc(OC1CN(C(=O)C3CC3)C1)cc2-c1cnc(Cl)c(OC(F)F)c1
5. CNc1ncc(-c2cc(OC3CN(C(=O)C4C[C@H]4C)C3)cc3c2CNC3=O)cc1C(F)(F)F (stereo not given in full)
6. Cn1ncc2cc(-c3cc(OC4CN(C(=O)C5CC5)C4)cc4c3CNC4=O)cnc21

["> 10 µM", "2.02 µM", "> 10 µM", "> 10 µM", "> 10 µM", "> 10 µM"]

Entry under review: `O=C1NCc2c1cc(O[C@@H]1CCN(C(=O)C3CC3)C1)cc2-c1cnc(F)c(O)c1` . Reported IC50?
1.09 µM

###

biological target: Phosphatidylinositol 4,5-bisphosphate 3-kinase catalytic subunit gamma isoform (Homo sapiens, UniProt P48736); experiment: Inhibition of PI3Kgamma (unknown origin) by HTRF assay
readout-kind: IC50 (µM)
Numbers only, in µM.

COc1ccc(-c2cc(O[C@@H]3CCN(C(=O)C4CC4)C3)cc3c2CNC3=O)cn1 4.74

Moving on to the next compound.
Entry under review: `O=C1NCc2c1cc(O[C@@H]1CCN(C(=O)C3CC3)C1)cc2-c1cc(O)cc(F)c1` . Reported IC50?
1.8

###

target: Phosphatidylinositol 4,5-bisphosphate 3-kinase catalytic subunit beta isoform (Homo sapiens); assay: Inhibition of PI3Kbeta (unknown origin) by HTRF assay
Sequence (P42338 whole entry, canonical isoform): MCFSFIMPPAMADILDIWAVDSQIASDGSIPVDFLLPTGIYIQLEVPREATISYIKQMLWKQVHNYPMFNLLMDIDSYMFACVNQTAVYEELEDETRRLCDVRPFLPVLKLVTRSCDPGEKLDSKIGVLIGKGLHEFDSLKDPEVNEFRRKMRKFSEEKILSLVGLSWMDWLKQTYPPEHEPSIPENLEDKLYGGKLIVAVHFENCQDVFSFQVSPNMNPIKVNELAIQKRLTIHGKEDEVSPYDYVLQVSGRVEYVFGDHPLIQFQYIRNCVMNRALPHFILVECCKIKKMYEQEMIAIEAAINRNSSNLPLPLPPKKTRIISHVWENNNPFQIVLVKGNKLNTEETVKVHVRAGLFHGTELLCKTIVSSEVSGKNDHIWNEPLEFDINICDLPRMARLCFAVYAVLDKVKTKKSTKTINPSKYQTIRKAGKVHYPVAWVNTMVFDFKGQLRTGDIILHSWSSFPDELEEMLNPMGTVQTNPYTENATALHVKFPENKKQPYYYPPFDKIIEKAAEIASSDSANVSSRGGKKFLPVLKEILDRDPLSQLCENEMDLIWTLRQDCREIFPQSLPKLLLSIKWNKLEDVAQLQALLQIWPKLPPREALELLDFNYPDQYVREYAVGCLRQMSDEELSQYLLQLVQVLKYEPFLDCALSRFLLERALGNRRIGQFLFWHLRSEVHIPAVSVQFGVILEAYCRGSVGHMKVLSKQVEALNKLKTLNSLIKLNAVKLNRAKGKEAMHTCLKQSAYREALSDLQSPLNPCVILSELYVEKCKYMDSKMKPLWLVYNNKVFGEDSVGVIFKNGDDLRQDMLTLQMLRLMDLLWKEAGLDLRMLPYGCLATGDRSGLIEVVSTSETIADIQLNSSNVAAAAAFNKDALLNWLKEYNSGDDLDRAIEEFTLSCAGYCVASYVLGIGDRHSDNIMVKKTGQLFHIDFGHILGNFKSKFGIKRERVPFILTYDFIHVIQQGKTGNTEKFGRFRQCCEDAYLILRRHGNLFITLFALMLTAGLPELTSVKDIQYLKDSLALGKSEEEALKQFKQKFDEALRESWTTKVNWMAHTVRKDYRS
readout-kind: IC50 (µM)
Answers are plain numbers, in µM.

Entry under review: `O=C1NCc2c1cc(NCCCN1CCOCC1)cc2-c1cccc(O)c1` . Reported IC50?
5.15
